// provenance: patent US20240002391A1

- Test system: Tau phosphorylation at Thr212 (pThr212) in HEK293T cells transfected with DYRK1A and MAPT
- PROTOCOL SUMMARY: Tau phosphorylation phosphoTau (Thr212) AlphaLISA assay in HEK293T cells transfected with DYRK1A and MAPT
- Type: cell-based
- TEST SETTINGS: HEK-293T, HEK293T cells transiently transfected with human DYRK1A and MAPT, compound treatment 18-24 hours, read-out: pTau (Thr212) EC50
MEASURED ENDPOINT: EC50
Please provide the amount together with its unit, number first.

COc1nc(N[C@H]2CCN(C)C[C@H]2F)nn2ccc(-c3ccc4ncccc4c3)c12; 109 nM
COc1nc(N[C@H]2CC[C@H](NC(C)=O)CC2)nn2ccc(-c3ccc4nccn4c3)c12; 25.7 nM
COc1nc(N[C@H]2CC[C@](C)(O)CC2)nn2ccc(-c3ccc4ncnn4c3)c12; 107 nM

Now consider the entry below.
Look up EC50: C[C@]1(O)CC[C@H](Nc2nc(OC3COC3)c3c(-c4ccc5nccnc5c4)ccn3n2)CC1 25.2 nM
